run-description: cells
condition-notes: Homo sapiens, PC3MM2
Recorded IC50 values for a group of molecules are listed next.
Please reply with the bare figure in nM and do not write the unit itself.

Take a look at these entries with their results.
substance_smiles=O=C(Nc1ccc(C(=O)N2CCC(N3CCCCC3)CC2)cc1)Nc1ccc(-c2nc(N3CCOCC3)nc(N3CCOCC3)n2)cc1 unit_symbol=nM recorded_value=7
substance_smiles=O=C(Nc1ccc(C(=O)N2CCC(N3CCCC3)CC2)cc1)Nc1ccc(-c2nc(N3CCOCC3)nc(N3CCOCC3)n2)cc1 unit_symbol=nM recorded_value=8.3
substance_smiles=CN(C)CCN(C)C(=O)c1ccc(NC(=O)Nc2ccc(-c3nc(N4CCOCC4)nc(N4CCOCC4)n3)cc2)cc1.Cl unit_symbol=nM recorded_value=18.3

Q: Query: IC50; subject: `Cc1ccc(NC(=O)Nc2ccc(-c3nc(N4CCOCC4)nc(N4CCOCC4)n3)cc2)cc1`
Ans: 364

###

Recorded log10 IC50 values for a group of compounds are listed next.
study-system: Phosphatidylinositol 4,5-bisphosphate 3-kinase catalytic subunit alpha isoform (Homo sapiens, UniProt P42336)
Sequence (P42336 whole entry, canonical isoform): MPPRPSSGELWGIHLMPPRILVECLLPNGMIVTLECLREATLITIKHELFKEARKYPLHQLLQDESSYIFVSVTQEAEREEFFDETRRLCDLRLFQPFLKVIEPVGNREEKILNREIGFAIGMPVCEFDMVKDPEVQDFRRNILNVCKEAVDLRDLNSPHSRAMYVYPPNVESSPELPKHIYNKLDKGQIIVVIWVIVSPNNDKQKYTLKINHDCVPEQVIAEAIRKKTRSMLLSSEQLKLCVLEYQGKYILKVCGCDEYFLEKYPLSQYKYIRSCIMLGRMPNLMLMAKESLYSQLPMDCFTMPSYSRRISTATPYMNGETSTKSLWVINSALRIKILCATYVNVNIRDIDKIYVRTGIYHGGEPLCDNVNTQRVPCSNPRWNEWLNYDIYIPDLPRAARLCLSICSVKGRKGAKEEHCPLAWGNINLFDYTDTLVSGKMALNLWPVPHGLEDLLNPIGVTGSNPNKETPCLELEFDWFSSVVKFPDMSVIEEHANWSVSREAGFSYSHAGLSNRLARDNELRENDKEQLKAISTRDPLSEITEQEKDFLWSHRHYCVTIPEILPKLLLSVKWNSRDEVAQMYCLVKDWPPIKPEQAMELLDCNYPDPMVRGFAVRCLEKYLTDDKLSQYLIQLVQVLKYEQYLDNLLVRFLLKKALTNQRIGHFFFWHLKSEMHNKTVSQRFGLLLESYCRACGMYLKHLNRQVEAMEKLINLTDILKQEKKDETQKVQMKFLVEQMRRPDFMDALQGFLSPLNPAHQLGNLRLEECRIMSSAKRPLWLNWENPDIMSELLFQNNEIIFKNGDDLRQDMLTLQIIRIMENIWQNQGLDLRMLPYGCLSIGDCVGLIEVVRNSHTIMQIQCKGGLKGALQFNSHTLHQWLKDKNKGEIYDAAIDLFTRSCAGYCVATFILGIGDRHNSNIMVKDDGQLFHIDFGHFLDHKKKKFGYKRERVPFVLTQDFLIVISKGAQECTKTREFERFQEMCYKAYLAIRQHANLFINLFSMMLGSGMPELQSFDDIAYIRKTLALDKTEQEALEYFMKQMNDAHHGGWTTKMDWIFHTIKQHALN
Reminder: these figures are log10 of reported IC50, in nM before transformation.

Take a look at these entries with their results.
substance_smiles=CNC(=O)Nc1ccc(-c2nc(N3CCOCC3)nc(N3CCOCC3)n2)cc1 recorded_value=2.54
substance_smiles=CN(C)CCNC(=O)c1ccc(NC(=O)Nc2ccc(-c3nc(N4CCOCC4)nc(N4CCOCC4)n3)cc2)cc1 recorded_value=-0.40

Q: Query: log10 IC50; subject: `O=C(Nc1ccc(-c2nc(N3CCOCC3)nc(N3CCOCC3)n2)cc1)Nc1cccnc1`
Ans: 0.23

Q: How about `O=C(Nc1ccc(-c2nc(N3CCOCC3)nc(N3CCOCC3)n2)cc1)NN1CCCCC1` ?
Ans: 3.18

Q: How about `O=C(Nc1ccc(C(=O)N2CCC(N3CCCC3)CC2)cc1)Nc1ccc(-c2nc(N3CCOCC3)nc(N3CCOCC3)n2)cc1` ?
Ans: -0.15

Q: How about `O=C(Nc1ccc(F)cc1)Nc1ccc(-c2nc(N3CCOCC3)nc(N3CCOCC3)n2)cc1` ?
Ans: 0.81

Q: How about `CN1CCN(C(=O)c2ccc(NC(=O)Nc3ccc(-c4nc(N5CCOCC5)nc(N5CCOCC5)n4)cc3)cc2)CC1` ?
Ans: -0.30

Q: How about `O=C(Nc1ccc(CCO)cc1)Nc1ccc(-c2nc(N3CCOCC3)nc(N3CCOCC3)n2)cc1` ?
Ans: 0.18

###

study-system: Phosphatidylinositol 4,5-bisphosphate 3-kinase catalytic subunit gamma isoform (Homo sapiens, UniProt P48736)
Sequence (P48736 whole entry, canonical isoform): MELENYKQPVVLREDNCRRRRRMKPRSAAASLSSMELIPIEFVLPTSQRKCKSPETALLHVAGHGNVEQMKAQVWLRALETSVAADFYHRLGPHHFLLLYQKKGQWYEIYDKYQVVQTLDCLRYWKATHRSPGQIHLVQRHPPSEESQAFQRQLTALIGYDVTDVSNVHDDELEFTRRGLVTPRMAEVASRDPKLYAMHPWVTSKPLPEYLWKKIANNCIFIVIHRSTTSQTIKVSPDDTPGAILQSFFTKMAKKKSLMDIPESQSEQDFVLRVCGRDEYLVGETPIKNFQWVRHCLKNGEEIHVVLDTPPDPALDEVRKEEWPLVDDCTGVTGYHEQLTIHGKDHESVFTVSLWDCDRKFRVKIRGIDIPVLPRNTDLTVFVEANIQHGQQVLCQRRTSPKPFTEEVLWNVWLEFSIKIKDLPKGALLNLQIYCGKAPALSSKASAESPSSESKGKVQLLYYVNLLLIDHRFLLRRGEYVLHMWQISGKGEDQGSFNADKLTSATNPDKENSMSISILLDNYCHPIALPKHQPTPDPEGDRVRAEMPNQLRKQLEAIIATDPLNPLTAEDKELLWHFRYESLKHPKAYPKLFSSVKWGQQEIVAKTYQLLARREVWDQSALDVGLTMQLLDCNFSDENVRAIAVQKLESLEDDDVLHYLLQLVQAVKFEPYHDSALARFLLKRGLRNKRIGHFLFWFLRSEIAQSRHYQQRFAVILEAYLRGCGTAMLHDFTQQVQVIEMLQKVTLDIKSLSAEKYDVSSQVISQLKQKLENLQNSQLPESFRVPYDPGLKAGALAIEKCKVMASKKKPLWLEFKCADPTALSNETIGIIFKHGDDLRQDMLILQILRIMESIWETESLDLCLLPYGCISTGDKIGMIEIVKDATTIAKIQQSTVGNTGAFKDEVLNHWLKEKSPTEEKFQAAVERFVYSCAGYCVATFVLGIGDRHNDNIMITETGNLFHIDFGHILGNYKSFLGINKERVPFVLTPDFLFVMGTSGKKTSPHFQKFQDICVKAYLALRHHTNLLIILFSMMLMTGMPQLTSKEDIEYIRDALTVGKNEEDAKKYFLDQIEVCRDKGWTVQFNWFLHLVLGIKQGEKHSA
Recorded pIC50 values for a group of molecules are listed next.
Recall that pIC50 is obtained by taking minus log10 of the concentration measured in molar.

Q: Query: pIC50; subject: `O=C(Nc1ccc(C(=O)N2CCC(N3CCCC3)CC2)cc1)Nc1ccc(-c2nc(N3CCOCC3)nc(N3CCOCC3)n2)cc1`
Ans: 8.00

Q: How about `CN(C)CCN(C)C(=O)c1ccc(NC(=O)Nc2ccc(-c3nc(N4CCOCC4)nc(N4CCOCC4)n3)cc2)cc1.Cl` ?
Ans: 8.05

Q: How about `CNC(=O)Nc1ccc(-c2nc(N3CCOCC3)nc(N3CCOCC3)n2)cc1` ?
Ans: 6.10

Q: How about `CN(C)CCNC(=O)c1ccc(NC(=O)Nc2ccc(-c3nc(N4CCOCC4)nc(N4CCOCC4)n3)cc2)cc1` ?
Ans: 8.10

Q: How about `CN1CCN(C(=O)c2ccc(NC(=O)Nc3ccc(-c4nc(N5CCOCC5)nc(N5CCOCC5)n4)cc3)cc2)CC1` ?
Ans: 8.05

Q: How about `O=C(Nc1ccc(-c2nc(N3CCOCC3)nc(N3CCOCC3)n2)cc1)NN1CCCCC1` ?
Ans: 5.13

Q: How about `O=C(Nc1ccc(CCO)cc1)Nc1ccc(-c2nc(N3CCOCC3)nc(N3CCOCC3)n2)cc1` ?
Ans: 7.67

###

run-description: Membrane permeability at pH 7.4 by PAMPA assay
Format: ADME
condition-notes: read-out: permeability
Label Y when Papp is at or above 0.1 ×10⁻⁶ cm/s; anything below gets N.

substance_smiles=O=C(Nc1ccc(-c2nc(N3CCOCC3)nc(N3CCOCC3)n2)cc1)NN1CCCCC1 class=N
substance_smiles=O=C(Nc1ccc(-c2nc(N3CCOCC3)nc(N3CCOCC3)n2)cc1)Nc1cccs1 class=Y
substance_smiles=CN(C)CCN(C)C(=O)c1ccc(NC(=O)Nc2ccc(-c3nc(N4CCOCC4)nc(N4CCOCC4)n3)cc2)cc1.Cl class=N

Q: Does Papp meet or surpass 0.1 ×10⁻⁶ cm/s for `CCNC(=O)Nc1ccc(-c2nc(N3CCOCC3)nc(N3CCOCC3)n2)cc1` ?
Ans: Y

###

study-system: Serine/threonine-protein kinase mTOR (Homo sapiens, UniProt P42345)
Quick rule for you: IC50 under 2 nM gets true (1), anything else gets false (0).

Some entries whose results are on file:
substance_smiles=O=C(Nc1ccc(C(=O)N2CCC(N3CCCC3)CC2)cc1)Nc1ccc(-c2nc(N3CCOCC3)nc(N3CCOCC3)n2)cc1 class="true (1)"
substance_smiles=O=C(Nc1ccc(Cl)cc1)Nc1ccc(-c2nc(N3CCOCC3)nc(N3CCOCC3)n2)cc1 class="false (0)"
substance_smiles=CN(C)CCNC(=O)c1ccc(NC(=O)Nc2ccc(-c3nc(N4CCOCC4)nc(N4CCOCC4)n3)cc2)cc1 class="true (1)"
substance_smiles=O=C(Nc1ccc(C(=O)N2CCC(N3CCCCC3)CC2)cc1)Nc1ccc(-c2nc(N3CCOCC3)nc(N3CCOCC3)n2)cc1 class="true (1)"
substance_smiles=O=C(Nc1ccc(-c2nc(N3CCOCC3)nc(N3CCOCC3)n2)cc1)NN1CCCCC1 class="false (0)"

Q: Please indicate whether the reported IC50 of `O=C(Nc1ccc(-c2nc(N3CCOCC3)nc(N3CCOCC3)n2)cc1)Nc1cccnc1` is strictly below 2 nM.
Ans: true (1)

Q: How about `O=C(Nc1ccccc1)Nc1ccc(-c2nc(N3CCOCC3)nc(N3CCOCC3)n2)cc1` ?
Ans: false (0)

Q: How about `O=C(Nc1ccc(F)cc1)Nc1ccc(-c2nc(N3CCOCC3)nc(N3CCOCC3)n2)cc1` ?
Ans: false (0)

Q: How about `O=C(Nc1ccc(C(=O)O)cc1)Nc1ccc(-c2nc(N3CCOCC3)nc(N3CCOCC3)n2)cc1` ?
Ans: true (1)
